# maps each entry to its self-splicing fitness (ln)
# test.description: self-splicing fitness, log relative to wild type (ln ratio); higher = more splicing; Tetrahymena group I intron in knt gene, E. coli kanamycin selection, DiMSum; sequences stand for … in CUCUCU…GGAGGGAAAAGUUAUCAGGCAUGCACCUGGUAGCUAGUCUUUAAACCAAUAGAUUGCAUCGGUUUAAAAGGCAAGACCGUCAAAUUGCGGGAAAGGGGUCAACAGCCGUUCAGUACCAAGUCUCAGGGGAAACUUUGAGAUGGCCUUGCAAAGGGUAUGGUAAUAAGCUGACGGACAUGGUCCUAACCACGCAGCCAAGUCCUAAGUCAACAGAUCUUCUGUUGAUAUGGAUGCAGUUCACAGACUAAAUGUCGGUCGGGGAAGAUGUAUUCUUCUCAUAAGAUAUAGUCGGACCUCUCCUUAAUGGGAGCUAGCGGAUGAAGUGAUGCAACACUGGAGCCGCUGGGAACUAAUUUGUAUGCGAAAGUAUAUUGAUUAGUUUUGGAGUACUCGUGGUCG;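 note: selection with 25 µg/mL kanamycin versus none on LB agar overnight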
# condition.set: 37 °C

*Q* Find the recorded self-splicing fitness (ln) belonging to CUGAAGCAAUAUUACGACUG and report it.
*A* 0.678

More entries:
*Q* May I ask what self-splicing fitness (ln) has been recorded for GGCAAGCAAUAUUACGCGAG ?
*A* -3.34

*Q* Return reported self-splicing fitness (ln); argument: GACAAGCAAUAUUACGAUCA
*A* -0.0166

====

# test.description: self-splicing fitness, log relative to wild type (ln ratio); higher = more splicing; Tetrahymena group I intron in knt gene, E. coli kanamycin selection, DiMSum; sequences stand for … in CUCUCU…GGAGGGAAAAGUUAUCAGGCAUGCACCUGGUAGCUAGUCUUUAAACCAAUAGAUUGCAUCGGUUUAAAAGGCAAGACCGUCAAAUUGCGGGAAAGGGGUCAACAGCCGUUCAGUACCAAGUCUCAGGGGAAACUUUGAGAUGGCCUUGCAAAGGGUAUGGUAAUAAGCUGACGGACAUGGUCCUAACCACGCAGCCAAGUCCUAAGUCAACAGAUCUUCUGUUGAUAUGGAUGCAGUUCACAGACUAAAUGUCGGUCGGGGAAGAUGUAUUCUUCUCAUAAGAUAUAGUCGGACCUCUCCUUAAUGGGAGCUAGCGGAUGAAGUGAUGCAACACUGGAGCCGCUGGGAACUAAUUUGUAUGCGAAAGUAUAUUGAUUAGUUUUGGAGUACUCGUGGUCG
# condition.set: 30 °C
assay.endpoint: self-splicing fitness (ln)
The answer should be written as a number, with no unit following it.

Examples with their reported self-splicing fitness (ln) follow.
*Q* What does the record list as self-splicing fitness (ln) for CGCGAGCAAUAUUACGGCGU ?
*A* -4.64

*Q* Quick one: self-splicing fitness (ln) for GCGUAGCAAUAUUACGUGGU ?
*A* -3.53

More entries:
*Q* Endpoint output: self-splicing fitness (ln) of AUGGAGCAAUAUUACGGGCC . Value?
*A* -2.63

*Q* Need self-splicing fitness (ln), item GUGGAGCAAUAUUACGCAUU
*A* -2.84

*Q* # query: self-splicing fitness (ln) of entry AAAAAGCAAUAUUACGUAGC
*A* -3.26

====

Catalogue of self-splicing fitness (ln) readings, one per entry.
# test.description: self-splicing fitness, log relative to wild type (ln ratio); higher = more splicing; Tetrahymena group I intron in knt gene, E. coli kanamycin selection, DiMSum; sequences stand for … in CUCUCU…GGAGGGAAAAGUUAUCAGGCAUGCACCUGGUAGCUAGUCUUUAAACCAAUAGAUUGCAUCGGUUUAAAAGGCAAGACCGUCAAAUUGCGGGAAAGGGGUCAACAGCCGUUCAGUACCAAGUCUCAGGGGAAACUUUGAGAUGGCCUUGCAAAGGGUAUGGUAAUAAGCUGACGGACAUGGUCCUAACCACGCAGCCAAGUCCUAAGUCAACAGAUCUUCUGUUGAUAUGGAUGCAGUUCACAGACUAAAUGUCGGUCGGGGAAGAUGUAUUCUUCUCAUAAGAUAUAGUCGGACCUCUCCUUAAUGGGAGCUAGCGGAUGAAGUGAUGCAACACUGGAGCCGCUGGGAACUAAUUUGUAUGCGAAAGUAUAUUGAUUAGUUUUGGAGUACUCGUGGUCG
# condition.set: 37 °C
Please respond with just the number, no unit label.

Field: example entries. Status: answers known.
*Q* # query: self-splicing fitness (ln) of entry GCACAGCAAUAUUACGACGU
*A* -0.0751

*Q* What measured self-splicing fitness (ln) goes with AACUAGCAAUAUUACGCUGC ?
*A* -2.29

*Q* Tell me the measured self-splicing fitness (ln) of CCCCAGCAAUAUUACGGGGC , please.
*A* -3.43

*Q* Looking for the measured self-splicing fitness (ln) of AUAGAGCAAUAUUACGAGUU , can you help?
*A* -1.33

*Q* Given GUCAAGCAAUAUUACGCCGC , state its recorded self-splicing fitness (ln).
*A* -2.35

*Q* Looking for the measured self-splicing fitness (ln) of UCGUAGCAAUAUUACGUGCG , can you help?
*A* -0.347

More entries:
*Q* Item CGCAAGCAAUAUUACGAAGG has what recorded self-splicing fitness (ln)?
*A* -0.75

*Q* Please give the measured self-splicing fitness (ln) for this sequence: AACGAGCAAUAUUACGGGCA
*A* -2.38

*Q* What measured self-splicing fitness (ln) goes with AAUAAGCAAUAUUACGAAUG ?
*A* -0.759

*Q* Find the recorded self-splicing fitness (ln) belonging to UGCUAGCAAUAUUACGCCUA and report it.
*A* -0.0492

*Q* self-splicing fitness (ln) for AUCUAGCAAUAUUACGUUGC ?
*A* -3.03

*Q* Query (sequence): GGAAAGCAAUAUUACGCAUG ; field requested: self-splicing fitness (ln)
*A* -0.813

*Q* What does the record list as self-splicing fitness (ln) for CGCGAGCAAUAUUACGGUGG ?
*A* -1.43

*Q* What value of measured self-splicing fitness (ln) is listed for UGAAAGCAAUAUUACGUCUU ?
*A* -0.659

*Q* Entry AAUUAGCAAUAUUACGCGGG : reported self-splicing fitness (ln) = ?
*A* -0.941

*Q* Param item = CACCAGCAAUAUUACGAUGA ; retrieve measured self-splicing fitness (ln).
*A* -2
